Reference source for all entries: ChEMBL document CHEMBL1201862

Heads up, these molecules all have AC50 values measured for Cytochrome P450 2C9 (Homo sapiens, UniProt P11712).

Please review the entries below; each comes with its answer.
Fc1ccc(C2=Nn3c(Cc4ccccc4F)nnc3SC2)cc1
2 µM (inconclusive)
COc1cc2c(C(=O)NCc3ccc(C)o3)cn(CC(C)C)c(=O)c2cc1OC
10 µM (inconclusive)
Cc1nc2ccccn2c1C(=O)C1=C(O)C(=O)N(CCCn2ccnc2)C1c1ccncc1 (stereo not given)
11.2 µM (inconclusive)

Hi! What's the reported AC50 for CCC(C)Nc1c([N+](=O)[O-])cc(C)cc1[N+](=O)[O-] (stereo not given) on Cytochrome P450 2C9 (Homo sapiens, UniProt P11712)?
15.8 µM (inconclusive)

For the record CCOc1ccc(C(CC(=O)O)NC(=O)COc2ccccc2)cc1 (stereo not given) , what value of AC50 is listed for Cytochrome P450 2C9 (Homo sapiens, UniProt P11712)?
39.8 µM (inconclusive)

Please tell me: AC50 of Cc1ccc(OCCNC(=O)c2cncc(Br)c2)cc1C , system Cytochrome P450 2C9 (Homo sapiens, UniProt P11712)?
25.1 µM (inconclusive)

Write down the reported AC50 of O=C(Nc1cc(C(F)(F)F)ccc1N1CCCCC1)c1ccc(Br)o1 , test system: Cytochrome P450 2C9 (Homo sapiens, UniProt P11712).
Sequence (P11712 whole entry): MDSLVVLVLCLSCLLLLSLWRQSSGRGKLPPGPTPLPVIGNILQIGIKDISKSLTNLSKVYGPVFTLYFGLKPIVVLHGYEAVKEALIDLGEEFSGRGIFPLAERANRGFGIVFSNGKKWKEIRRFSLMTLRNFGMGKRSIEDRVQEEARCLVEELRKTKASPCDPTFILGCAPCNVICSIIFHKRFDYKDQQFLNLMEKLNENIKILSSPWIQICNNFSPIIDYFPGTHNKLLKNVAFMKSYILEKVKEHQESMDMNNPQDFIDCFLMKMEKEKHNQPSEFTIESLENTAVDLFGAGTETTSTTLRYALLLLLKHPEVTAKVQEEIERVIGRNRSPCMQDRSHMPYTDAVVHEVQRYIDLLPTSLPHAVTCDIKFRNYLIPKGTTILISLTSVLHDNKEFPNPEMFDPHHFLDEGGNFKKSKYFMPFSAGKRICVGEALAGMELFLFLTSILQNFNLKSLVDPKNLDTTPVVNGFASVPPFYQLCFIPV
1.41 µM (inconclusive)

Item: COC(=O)[C@@]1(Cc2ccc(OC)cc2)[C@H]2c3cc(C(=O)N(C)C)n(Cc4ccc(C(F)(F)F)nc4)c3C[C@H]2CN1C(=O)c1ccccc1 Test system: Cytochrome P450 2C9 (Homo sapiens, UniProt P11712) Read-out: AC50 Value: ?
39.8 µM (inconclusive)

Provide value of AC50 for this record tested with Cytochrome P450 2C9 (Homo sapiens, UniProt P11712): Cc1cccc(CS(=O)(=O)Cc2ccc(C(=O)NCc3ccco3)o2)c1
7.08 µM (inconclusive)

Hi! What's the reported AC50 for COc1cc(OC)c(C2C(C(=O)Nc3ccc(C)cc3C)=C(C)Nc3ncnn32)cc1OC (stereo not given) on Cytochrome P450 2C9 (Homo sapiens, UniProt P11712)?
15.8 µM (inconclusive)
